Quick reference for pKi among some compounds
- Test system: Plasmodium falciparum
- methodNotes: Inhibitory activity against Plasmodium falciparum 68 neutral proteinase.
- Assay type: functional
pKi: −log10 of the molar value. Peptide text beside a SMILES is read from it.

Examples from the recorded data:
Find the measured pKi: item CC(C)C[C@H](NC(=O)[C@@H](NC(=O)[C@H](O)[C@@H](O)[C@H](O)[C@H](O)CO)C(C)C)C(=O)NCC(=O)N[C@@H](CCCCN)C(=O)N1CCC[C@H]1C(=O)O , target or system Plasmodium falciparum.
< 2.60

I'm curious: which pKi was measured for CCNC(=O)CNC(=O)[C@H](CCCN=C(N)N)NC(=O)[C@H](Cc1ccccc1)NC(=O)[C@H](CC(=O)O)NC(C)=O (Ac-DFRG-NHEt) tested on Plasmodium falciparum?
< 2.60

// below: pKi requested for another compound
Record lookup: for Plasmodium falciparum, what pKi belongs to CC(C)C[C@H](NC(=O)[C@@H](NC(=O)[C@H](O)[C@@H](O)[C@H](O)[C@H](O)CO)C(C)C)C(=O)NCC(=O)N[C@@H](CCCCN)C(=O)NC(CO)CO ?
2.84

The reported numbers originate from ChEMBL document CHEMBL1125768.
